biological target: KRas G12A (Homo sapiens, UniProt P01116, G12A); test: biochemical;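 also: binding to KRas measured by TR-FRET displacement after one hour at room temperature, IC50 from a four-parameter fit of percent-of-control values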
Sequence (P01116 1-169 isoform P01116-2 G12A): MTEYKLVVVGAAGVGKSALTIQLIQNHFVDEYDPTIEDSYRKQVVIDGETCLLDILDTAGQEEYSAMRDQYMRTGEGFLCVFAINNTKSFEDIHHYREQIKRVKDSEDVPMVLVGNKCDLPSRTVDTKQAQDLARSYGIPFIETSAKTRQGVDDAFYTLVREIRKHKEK
RECORDED ENDPOINT: log10 of IC50 (log10 of the value in nM)

| COMPOUND | TARGET OF ASSAY | REPORTED RESULT |
| --- | --- | --- |
| Fc1c(-c2cccc3cccc(F)c23)ncc2c(N3CC(c4ccncc4)C3)nc(OCC34CCCN3CCC4)nc12 [Example 213] | KRas G12A (Homo sapiens, UniProt P01116, G12A) | 3.79 |
| CCc1cccc2cccc(-c3ncc4c(NCc5c[nH]c6ncccc56)nc(OCC56CCCN5CCC6)nc4c3F)c12 [Example 205] | KRas G12A (Homo sapiens, UniProt P01116, G12A) | 1.11 |
| Fc1c(-c2cccc3cccc(F)c23)ncc2c(NCc3nnc4ncccn34)nc(OCC34CCCN3CCC4)nc12 [Example 121] | KRas G12A (Homo sapiens, UniProt P01116, G12A) | 4.19 |
| Fc1c(-c2cccc3cccc(F)c23)ncc2c(NCCCc3cc[nH]n3)nc(OCC34CCCN3CCC4)nc12 [Example 84] | KRas G12A (Homo sapiens, UniProt P01116, G12A) | 3.22 |
| OC1CC2CC1CN(c1nc(OCC34CCCN3CCC4)nc3c(F)c(-c4cccc5cccc(F)c45)ncc13)C2 (centres unmarked) [Example 81] | KRas G12A (Homo sapiens, UniProt P01116, G12A) | 2.88 |
| Fc1c(-c2cccc3cccc(F)c23)ncc2c(NCCCn3cnnn3)nc(OCC34CCCN3CCC4)nc12 [Example 119] | KRas G12A (Homo sapiens, UniProt P01116, G12A) | 4.16 |
| O=C1NC(=O)C2(CCCN(c3nc(OCC45CCCN4CCC5)nc4c(F)c(-c5cccc6cccc(F)c56)ncc34)C2)N1 (centres unmarked) [Example 158] | KRas G12A (Homo sapiens, UniProt P01116, G12A) | 1.93 |
| O=C1CC2(CCCN(c3nc(OCC45CCCN4CCC5)nc4c(F)c(-c5cccc6cccc(C(F)F)c56)ncc34)C2)N1 (centres unmarked) [Example 466] | KRas G12A (Homo sapiens, UniProt P01116, G12A) | 3.52 |
| OCC12CC(Nc3nc(OCC45CCCN4CCC5)nc4c(F)c(-c5cccc6cccc(F)c56)ncc34)(C1)C2 [Example 85] | KRas G12A (Homo sapiens, UniProt P01116, G12A) | 3.45 |
| CNc1cc2n(n1)CCCN(c1nc(OCC34CCCN3CCC4)nc3c(F)c(-c4cccc5cccc(F)c45)ncc13)C2 [Example 263] | KRas G12A (Homo sapiens, UniProt P01116, G12A) | 3.69 |
| Fc1c(-c2cccc3cccc(Cl)c23)ncc2c(N3CCCC(n4cccn4)C3)nc(OCC34CCCN3CCC4)nc12 (centres unmarked) [Example 109] | KRas G12A (Homo sapiens, UniProt P01116, G12A) | 3.63 |
| CSc1cccc2cccc(-c3ncc4c(N5CCCC6(CC(=O)N6)C5)nc(OCC56CCCN5CCC6)nc4c3F)c12 (centres unmarked) [Example 469] | KRas G12A (Homo sapiens, UniProt P01116, G12A) | 2.26 |
| Nc1ncccc1CNc1nc(OCC23CCCN2CCC3)nc2c(F)c(-c3cccc4cccc(F)c34)ncc12 [Example 70] | KRas G12A (Homo sapiens, UniProt P01116, G12A) | 2.61 |
